The reported numbers originate from ChEMBL document CHEMBL1129607.

Recorded solubility values for a group of molecules are listed next.
- Assay Procedure: Aqueous solubility in phosphate buffer of pH 7.4

Completed entries (count: 2):
Request: Provide measured solubility value, entry: CC(C)[C@@H]1NC(=O)[C@@H]([C@H](O)[C@H](Cc2ccccc2)NC(=O)[C@@H](NC(=O)CSc2nncn2C)C(C)(C)C)NCc2ccc(cc2)OCCOCCNC1=O
Result: 1710 µM

Request: Provide measured solubility value, entry: COc1ccc(CN[C@@H](C(=O)N[C@@H]2c3ccccc3C[C@H]2O)[C@H](O)[C@H](Cc2ccccc2)NC(=O)[C@@H](NC(=O)OCc2ccccc2)C(C)C)cc1
Result: < 10 µM

Lab note: next molecule to report on.
Request: Provide measured solubility value, entry: COc1ccc(CN[C@@H](C(=O)N[C@H](C(=O)NCc2nc3ccccc3[nH]2)C(C)C)[C@H](O)[C@H](Cc2ccccc2)NC(=O)[C@@H](NC(=O)OCc2ccccc2)C(C)C)cc1
Result: < 10 µM

* * *

Entries with reported IC50 on Cathepsin D (Homo sapiens, UniProt P07339)
Sequence (P07339 65-162 limits assumed): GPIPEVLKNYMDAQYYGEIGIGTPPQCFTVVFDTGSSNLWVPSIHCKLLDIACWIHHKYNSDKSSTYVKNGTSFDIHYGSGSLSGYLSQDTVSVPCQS
Sequence (P07339 169-412 limits assumed): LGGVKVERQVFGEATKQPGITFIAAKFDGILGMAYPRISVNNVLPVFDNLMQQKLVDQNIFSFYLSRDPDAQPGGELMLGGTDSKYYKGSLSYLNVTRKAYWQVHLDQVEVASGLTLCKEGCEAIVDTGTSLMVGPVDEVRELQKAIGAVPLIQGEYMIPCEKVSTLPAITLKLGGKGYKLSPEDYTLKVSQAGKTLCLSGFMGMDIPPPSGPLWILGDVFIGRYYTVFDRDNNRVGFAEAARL

Request: Under Cathepsin D (Homo sapiens, UniProt P07339), report IC50 for CC(C)[C@H](NC(=O)OCc1ccccc1)C(=O)N[C@@H](Cc1ccccc1)[C@@H](O)[C@H]1NCc2ccc(cc2)OCCOCCOCCNC(=O)[C@H](C(C)C)NC1=O
Result: > 10 µM

---
Request: Under Cathepsin D (Homo sapiens, UniProt P07339), report IC50 for CC(C)[C@H](NC(=O)OCc1ccccc1)C(=O)N[C@@H](Cc1ccccc1)[C@@H](O)[C@H]1NCc2ccc(cc2)OCCOCCNC(=O)[C@H](C(C)C)NC1=O
Result: > 10 µM

Request: Under Cathepsin D (Homo sapiens, UniProt P07339), report IC50 for CC(C)[C@@H]1NC(=O)[C@@H]([C@H](O)[C@H](Cc2ccccc2)NC(=O)[C@@H](NC(=O)OCc2ccccc2)C(C)(C)C)NCc2ccc(cc2)OCCOCCNC1=O
Result: > 10 µM

* * *

- Assayed Target: Human immunodeficiency virus type 1 protease (Human immunodeficiency virus 1, UniProt Q72874)
- Assay Procedure: Inhibition of HIV-1 proteinase was assayed in infected MT-4 cells
- Assay type: cell-based, MT4
Endpoint: Ki (nM)

Completed entries (count: 4):
Request: Provide measured Ki value, entry: CC(C)[C@@H]1NC(=O)[C@@H]([C@H](O)[C@H](Cc2ccccc2)NC(=O)O[C@H]2CCOC2)NCc2ccc(cc2)OCCOCCNC1=O
Result: 8.2

Request: Provide measured Ki value, entry: CC(C)[C@@H]1NC(=O)[C@@H]([C@H](O)[C@H](Cc2ccccc2)NC(=O)OC(C)(C)C)NCc2ccc(cc2)OCCOCCNC1=O
Result: 14

Request: Provide measured Ki value, entry: CC(C)[C@H](NC(=O)OCc1ccccc1)C(=O)N[C@@H](Cc1ccccc1)[C@@H](O)[C@H]1NCc2ccc(cc2)OCCOCCNC(=O)[C@H](C(C)C)NC1=O
Result: 7.9

Request: Provide measured Ki value, entry: CC(C)[C@H](NC(=O)OCc1ccccc1)C(=O)N[C@@H](Cc1ccccc1)[C@@H](O)[C@H]1NCc2cccc(c2)OCCOCCOCCNC(=O)[C@H](C(C)C)NC1=O
Result: 7.7

(a) CC(C)[C@@H]1NC(=O)[C@@H]([C@H](O)[C@H](Cc2ccccc2)NC(=O)[C@@H](NC(=O)CSc2nncn2C)C(C)(C)C)NCc2ccc(cc2)OCCOCCNC1=O
(b) CC(C)[C@H](NC(=O)OCc1ccccc1)C(=O)N[C@@H](Cc1ccccc1)[C@@H](O)[C@H]1NCc2ccc(cc2)OCCOCCOCCNC(=O)[C@H](C(C)C)NC1=O
Request: Could you please tell me which of these two has the higher Ki: a or b ? Answer format: the label of the selected item.
Result: a
